Molecular target: HIV Env, isolate 6244_13_B5_4576 (HIV)
Assay: cell-based or functional assay
Can you tell me IC80 (µg/ml) with constrains for the items I'm about to list?
Answers are plain numbers, in µg/mL.

BINDER: ePGDM5 (antibody, V domains shown) VH: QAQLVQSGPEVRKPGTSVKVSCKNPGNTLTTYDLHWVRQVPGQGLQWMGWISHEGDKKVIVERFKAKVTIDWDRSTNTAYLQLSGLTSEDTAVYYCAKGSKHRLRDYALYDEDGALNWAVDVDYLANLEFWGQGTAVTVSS VL: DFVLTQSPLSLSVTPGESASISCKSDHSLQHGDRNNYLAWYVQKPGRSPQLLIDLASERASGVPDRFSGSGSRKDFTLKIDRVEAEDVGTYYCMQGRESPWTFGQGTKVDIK
IC80 (µg/ml) with constrains (µg/mL): 75.6

Now let's try a different one.
Problem: Supply IC80 (µg/ml) with constrains value. Item: ePGDM9 (antibody, V domains shown) VH: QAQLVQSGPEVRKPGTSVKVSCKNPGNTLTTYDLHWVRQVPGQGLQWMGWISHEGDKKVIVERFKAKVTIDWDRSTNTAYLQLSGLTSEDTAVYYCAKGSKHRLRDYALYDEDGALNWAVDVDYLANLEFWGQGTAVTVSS VL: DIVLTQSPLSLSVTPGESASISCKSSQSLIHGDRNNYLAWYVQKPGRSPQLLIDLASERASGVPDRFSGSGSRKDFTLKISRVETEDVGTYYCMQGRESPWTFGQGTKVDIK
Solution: 50.2

The reported measurements were obtained from patent US20230134571A1.
